From: patent US10450368

Listed below: LogAUC values for each entry.
- Tested On: T1, CH505.TF mutant gp120 M20 (HIV-1)
- T1 construct: domain: gp120
- Run Description: ELISA
Measured Attribute: LogAUC

[[record]]
binder = "CH557 (antibody, V domains shown, also called CH235.12; CH557_4A/293i) VH: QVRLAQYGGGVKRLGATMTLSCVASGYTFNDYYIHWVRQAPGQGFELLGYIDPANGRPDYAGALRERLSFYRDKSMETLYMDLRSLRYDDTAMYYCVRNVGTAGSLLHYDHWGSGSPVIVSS VL: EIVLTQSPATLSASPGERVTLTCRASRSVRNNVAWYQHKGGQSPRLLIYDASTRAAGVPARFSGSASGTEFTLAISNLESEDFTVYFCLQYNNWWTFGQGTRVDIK"
measured_attribute = "LogAUC"
result = 0

[[record]]
binder = "CH493 (antibody, V domains shown, also called CH235.9; DH493) VH: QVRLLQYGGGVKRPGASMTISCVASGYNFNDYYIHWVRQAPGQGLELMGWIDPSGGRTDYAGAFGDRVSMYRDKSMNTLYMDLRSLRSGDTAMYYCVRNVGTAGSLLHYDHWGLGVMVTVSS VL: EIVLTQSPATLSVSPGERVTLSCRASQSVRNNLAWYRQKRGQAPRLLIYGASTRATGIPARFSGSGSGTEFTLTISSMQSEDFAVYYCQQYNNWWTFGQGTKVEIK"
measured_attribute = "LogAUC"
result = 1.04

[[record]]
binder = "CH556 (antibody, V domains shown, also called CH235.11) VH: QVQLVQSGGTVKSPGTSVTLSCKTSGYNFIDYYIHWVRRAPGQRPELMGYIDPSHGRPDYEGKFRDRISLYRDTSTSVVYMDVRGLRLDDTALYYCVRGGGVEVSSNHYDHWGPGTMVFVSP VL: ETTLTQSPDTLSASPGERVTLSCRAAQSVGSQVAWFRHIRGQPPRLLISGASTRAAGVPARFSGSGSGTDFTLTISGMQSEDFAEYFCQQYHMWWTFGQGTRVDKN"
measured_attribute = "LogAUC"
result = 0.28

